pIC50: −log10 of the molar value.
Published pIC50 for UniProt P00533, assembled from different documents, is shown next.

UniProt P00533 / pIC50 / C=CC(=O)N1CCOc2c1ccc1ncnc(Nc3ccc(Oc4ccccc4)cc3)c21 : value?
≥ 7.30

UniProt P00533 / pIC50 / C[C@H]1CN(C)Cc2c(c(O)nn2CCO)/C=C/c2n[nH]c3ccc(cc23)-c2cnn(C)c2O1 : value?
7.36

UniProt P00533 / pIC50 / CN(C)C/C=C/C(=O)N1CCOc2c1ccc1ncnc(Nc3ccc(Oc4ccccc4)c(Cl)c3)c21 : value?
≥ 7.30

UniProt P00533 / pIC50 / COc1cc(C)cc(-c2nc(C(C)C)sc2-c2ccnc(Nc3ccc(N4CCN5CCCCC5C4)c(F)c3)n2)c1 (stereo not shown) : value?
< 6.00

Continuing:
UniProt P00533 / pIC50 / COc1ccc(NC(=O)/C=C/CN2CCN(C(C)=O)CC2)cc1Nc1ncc(Cl)c(Nc2ccc3ccccc3c2)n1 : value?
6.16

UniProt P00533 / pIC50 / Cc1ccnc(NC(=O)c2ccc(Oc3ccnc4[nH]nc(N[C@@H]5CCCN(C(=O)CCN(C)C)C5)c34)cc2)c1 : value?
5.00 to 6.00

UniProt P00533 / pIC50 / Cc1ccnc(NC(=O)c2ccc(Oc3ccnc4[nH]nc(N[C@@H]5CCCN(C(=O)C(=O)N(C)C)C5)c34)cc2)c1 : value?
< 5.00
